Target: Tetanus toxoid (TT) (UniProt P04958 2-1315)
Sequence (P04958 2-457 limits assumed, chain 1 of 2): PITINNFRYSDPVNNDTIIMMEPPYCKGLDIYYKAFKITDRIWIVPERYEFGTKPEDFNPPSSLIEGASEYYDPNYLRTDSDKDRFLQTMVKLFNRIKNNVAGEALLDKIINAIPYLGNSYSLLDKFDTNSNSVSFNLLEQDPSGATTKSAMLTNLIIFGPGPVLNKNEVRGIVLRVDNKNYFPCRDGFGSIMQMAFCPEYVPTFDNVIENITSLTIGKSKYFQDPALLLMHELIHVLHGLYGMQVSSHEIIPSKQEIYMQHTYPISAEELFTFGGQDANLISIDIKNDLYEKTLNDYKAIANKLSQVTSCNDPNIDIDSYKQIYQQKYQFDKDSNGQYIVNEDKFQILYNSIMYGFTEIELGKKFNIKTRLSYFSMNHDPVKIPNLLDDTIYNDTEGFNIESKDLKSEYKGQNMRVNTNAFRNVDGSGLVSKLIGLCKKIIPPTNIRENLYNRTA
Sequence (P04958 458-1315 limits assumed, chain 2 of 2): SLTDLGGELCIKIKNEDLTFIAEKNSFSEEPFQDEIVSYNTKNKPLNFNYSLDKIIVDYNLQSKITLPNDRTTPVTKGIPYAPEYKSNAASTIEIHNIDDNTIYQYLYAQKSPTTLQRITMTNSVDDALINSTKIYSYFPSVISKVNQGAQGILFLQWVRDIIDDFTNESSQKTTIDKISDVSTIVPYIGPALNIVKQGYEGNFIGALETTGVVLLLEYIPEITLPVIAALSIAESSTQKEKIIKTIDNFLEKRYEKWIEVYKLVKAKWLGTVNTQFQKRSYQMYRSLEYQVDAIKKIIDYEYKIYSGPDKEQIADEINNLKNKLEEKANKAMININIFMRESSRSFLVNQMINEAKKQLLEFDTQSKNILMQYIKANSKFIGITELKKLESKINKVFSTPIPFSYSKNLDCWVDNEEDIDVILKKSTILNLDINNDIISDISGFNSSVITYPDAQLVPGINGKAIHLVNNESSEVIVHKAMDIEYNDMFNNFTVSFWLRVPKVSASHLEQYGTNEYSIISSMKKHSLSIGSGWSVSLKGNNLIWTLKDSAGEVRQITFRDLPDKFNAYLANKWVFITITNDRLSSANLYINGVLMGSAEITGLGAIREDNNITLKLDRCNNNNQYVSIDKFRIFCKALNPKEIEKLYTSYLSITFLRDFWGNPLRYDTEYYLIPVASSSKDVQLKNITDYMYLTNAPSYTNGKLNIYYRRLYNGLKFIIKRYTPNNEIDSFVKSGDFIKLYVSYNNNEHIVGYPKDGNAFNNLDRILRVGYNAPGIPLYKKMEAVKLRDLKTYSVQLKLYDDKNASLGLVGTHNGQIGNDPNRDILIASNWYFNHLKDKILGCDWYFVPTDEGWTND
Assay: competitive ELISA, IgG equilibrated with soluble TT, TT-coated plate
One threshold, 500 pM, splits the recorded Kd values: lower ones are 1, equal or higher ones are -1.

BINDER	CLASS ASSIGNMENT
TT-9 (antibody, V domains shown, also called VH-10/VL-10) VH: QVQLQESGPGLVKPSGTLSLTCAVSGVPVYTGHWWTWVRQAPGKGLEWIGEIHHTVTTNYNPSLRSRVTISEDRSKNQISLTLQSVTAADTAVYFCARGEDCVGGSCYSADWGQGILVTVSS VL: EIVLTQSPSSLSASVGDRVTITCRASQNIHLFLNWYQQRPGRVPKVLIYATSTLQSGVPSRFSGSGSGTDFTLTISSVQPEDFATYYCQQSFSTPRTFGPGTKVEIK	1
TT-6 (antibody, V domains shown, also called VH-7/VL-7) VH: QVQLVESGSEVRKPGASVKVSCKASGYTFSRYGLTWVRQAPGQGLEWMGWISGYNSNTNYAPKFQGRVTMTTDTSTNTAYLELRSLRSNDTAVYYCARDYFHSGSQYFFDYWGQGSLVTVSS VL: DIRLTQSPSSLSASVGDRVTITCRSSQTISTYLNWYQQKPGEAPKILIYAASSLHTGVPSRFSGSGSGTDFTLTITSLQPEDFAIYHCQQSYSTPYTFGQGTKVEIK	-1
TT-1 (antibody, V domains shown, also called VH-1/VL-1) VH: QVQLVESGGGLVQPGRSLRLSCVGSGFSFESYAMHWVRLAPGKGLEWVAGISWDSGAKGNADSVEGRFTISRDNAKKSVYLEMRSLRPEDTAFYYCAKAPIIGPKYYFYMDVWGKGTSVTVSS VL: EIVLTQSPGTLSLSPGERATLSCRASQRVKSSYLAWYQQKPGQAPRLLIYDASTRATGIPDRFSGSGSGTDFTLTISRLEPEDVAVYYCQQYGTSRGTFGQGTRLEIK	-1
TT-3 (antibody, V domains shown, also called VH-3/VL-3) VH: QVQLVQSGAEVKKPGASVRVSCKASGYTFTRYAMHWVRQAPGQRPEWMGWINVDNGNTEYSQKFQGRLTITRDTSASTAYMELSSLTSDDTAVYYCAKDRVRVVQAATTLDFWGQGTLVTVSS VL: EIVLTQSPGTLSLSPGERATLSCRASQTIPSKYLGWYQQKLGQAPRLLIYGASSRATGIPDRFSGSGSGTDFTLTISRLEPEDFAVYYCQQYGSLSAITFGQGTRLEIK	-1
TT-10 (antibody, V domains shown, also called VH-11/VL-11) VH: QVQLQESGGGLVQPGRSLRLSCVGSGFSFESYAMHWVRQAPGKGLEWVAGISWDSGAKGNADSVEGRFTISRDNAKKSLYLEMRSLRPEDTAFYYCAKAPIIGPKHYFYMDVWGKGTSVTVSS VL: EIVLTQSPGTLSLSPGERATLSCRASQRVKSSYLAWYQQKPGQAPRLLIYDASTRATGIPDRFSGSGSGTDFTLTISRLEPEDVAVYYCQQYGTSRGTFGQGTRLEIK	-1
